Test: MRT (0 to infinity) in beagle dog at 10 mg/kg, po by LC-MS/MS analysis
Format: ADME, organism-based, Canis lupus familiaris
Conditions: in vivo
measurement-name: MRT inf (h)
State the answer as a number, implicitly in h.

q: Which MRT inf reading was recorded for the molecule COCCN[C@H]1CC[C@H](Nc2cc(-c3csc(NCC4(C#N)CCOCC4)n3)c(Cl)cn2)CC1 ?
a: 29.2

###

Assay: Tmax in Sprague-Dawley rat at 3 mg/kg, iv by LC-MS/MS analysis
Format: ADME, organism-based
Settings: in vivo
measurement-name: Tmax (min)
State the answer as a number, implicitly in min.

q: Which Tmax reading was recorded for the compound COCCN[C@H]1CC[C@H](Nc2cc(-c3csc(NCC4(C#N)CCOCC4)n3)c(Cl)cn2)CC1 ?
a: 1.2

Data provenance is ChEMBL document CHEMBL4261600.
